Where do these numbers come from? They come from patent US9596857B2.

The entries below come with measured % Mortality Cotton Aphid values attached.
- System: cotton aphid (Aphis gossypii [Glover])
- protocol details: Foliar leaf-dip test against cotton aphid on tomato plants
- Format: in vivo
- measurement parameters: cyano-pyrethroid 100.0 ppm alone (bifenthrin 0 ppm); technical; 72 h
- Experimental: Candidate insecticide compositions were evaluated for activity in foliar evaluations against tobacco budworm (Heliothis virescens [Fabricius]), Colorado potato beetle (Leptinotarsa decemlineata [Say]), corn earworm (Helicoverpa zea [Boddie]), cotton aphid (Aphis gossypii [Glover]) and twospotted spider mite (Tetranychus urticae [Koch]). […] At the end of the 72 hour exposure period the numbers of dead and live insects were counted. […]
reported property: % Mortality Cotton Aphid (%)

CC1(C)C(C=C(Cl)Cl)C1C(=O)OC(C#N)c1ccc(F)c(Oc2ccccc2)c1 (racemic) : 9
CC1(C)C(C=C(Cl)Cl)C1C(=O)OC(C#N)c1cccc(Oc2ccccc2)c1 (racemic) : 3
CC1(C)[C@H](C(=O)O[C@H](C#N)c2cccc(Oc3ccccc3)c2)[C@@H]1/C=C(\Cl)C(F)(F)F (racemic) : 10
CC(C)[C@H](C(=O)O[C@H](C#N)c1cccc(Oc2ccccc2)c1)c1ccc(Cl)cc1 [esfenvalerate] : 14
CC1(C)[C@H](C(=O)O[C@H](C#N)c2cccc(Oc3ccccc3)c2)[C@@H]1C=C(Br)Br : 8

###

The entries below come with measured % Mortality Twospotted Spider Mite values attached.
- Test system: twospotted spider mite (Tetranychus urticae [Koch])
- protocol details: Foliar leaf-dip test against twospotted spider mite on pinto bean plants
- Format: in vivo
- measurement parameters: cyano-pyrethroid 100.0 ppm alone (bifenthrin 0 ppm); technical; 96 h
- Description: Candidate insecticide compositions were evaluated for activity in foliar evaluations against tobacco budworm (Heliothis virescens [Fabricius]), Colorado potato beetle (Leptinotarsa decemlineata [Say]), corn earworm (Helicoverpa zea [Boddie]), cotton aphid (Aphis gossypii [Glover]) and twospotted spider mite (Tetranychus urticae [Koch]). […] At the end of the 96 hour exposure period the numbers of dead and live insects were counted. […]
reported property: % Mortality Twospotted Spider Mite (%)

CC1(C)C(C=C(Cl)Cl)C1C(=O)OC(C#N)c1cccc(Oc2ccccc2)c1 (racemic) [alpha-cypermethrin] : 16
CC1(C)C(C=C(Cl)Cl)C1C(=O)OC(C#N)c1ccc(F)c(Oc2ccccc2)c1 (racemic) [cyfluthrin] : 11
CC1(C)[C@H](C(=O)O[C@H](C#N)c2cccc(Oc3ccccc3)c2)[C@@H]1/C=C(\Cl)C(F)(F)F (racemic) [lambda-cyhalothrin] : 39
CC1(C)[C@H](C(=O)O[C@H](C#N)c2cccc(Oc3ccccc3)c2)[C@@H]1C=C(Br)Br [delta-methrin] : 26
CC(C)[C@H](C(=O)O[C@H](C#N)c1cccc(Oc2ccccc2)c1)c1ccc(Cl)cc1 [esfenvalerate] : 71

###

- Tested on: twospotted spider mite (Tetranychus urticae [Koch])
- protocol details: Foliar leaf-dip test against twospotted spider mite on pinto bean plants
- Assay type: in vivo
- measurement parameters: cyano-pyrethroid 30.0 ppm alone (bifenthrin 0 ppm); technical; 96 h
Assign labels as follows, please: Criterion met for % Mortality Twospotted Spider Mite below 20%; Criterion not met for % Mortality Twospotted Spider Mite equal to or exceeding 20%.

CC(C)[C@H](C(=O)O[C@H](C#N)c1cccc(Oc2ccccc2)c1)c1ccc(Cl)cc1 [esfenvalerate] : Criterion not met
CC1(C)[C@H](C(=O)O[C@H](C#N)c2cccc(Oc3ccccc3)c2)[C@@H]1C=C(Br)Br [delta-methrin] : Criterion not met
CC1(C)[C@H](C(=O)O[C@H](C#N)c2cccc(Oc3ccccc3)c2)[C@@H]1/C=C(\Cl)C(F)(F)F (racemic) [lambda-cyhalothrin] : Criterion met
CC1(C)C(C=C(Cl)Cl)C1C(=O)OC(C#N)c1cccc(Oc2ccccc2)c1 (racemic) [alpha-cypermethrin] : Criterion met
CC1(C)C(C=C(Cl)Cl)C1C(=O)OC(C#N)c1ccc(F)c(Oc2ccccc2)c1 (racemic) [cyfluthrin] : Criterion met

###

The entries below come with measured % Mortality Corn Earworm values attached.
- Test system: corn earworm (Helicoverpa zea [Boddie])
- protocol details: Cotton leaf-disc dip test against corn earworm
- Format: in vivo
- measurement parameters: cyano-pyrethroid 3.0 ppm alone (bifenthrin 0.0 ppm); technical; 96 h
reported property: % Mortality Corn Earworm (%)

CC1(C)[C@H](C(=O)O[C@H](C#N)c2cccc(Oc3ccccc3)c2)[C@@H]1/C=C(\Cl)C(F)(F)F (racemic) [lambda-cyhalothrin] : 56
CC1(C)C(C=C(Cl)Cl)C1C(=O)OC(C#N)c1ccc(F)c(Oc2ccccc2)c1 (racemic) [cyfluthrin] : 100
CC1(C)[C@H](C(=O)O[C@H](C#N)c2cccc(Oc3ccccc3)c2)[C@@H]1C=C(Br)Br [delta-methrin] : 94
CC1(C)C(C=C(Cl)Cl)C1C(=O)OC(C#N)c1cccc(Oc2ccccc2)c1 (racemic) [alpha-cypermethrin] : 100
CC(C)[C@H](C(=O)O[C@H](C#N)c1cccc(Oc2ccccc2)c1)c1ccc(Cl)cc1 [esfenvalerate] : 13

###

The entries below come with measured % Mortality Cotton Aphid values attached.
- Tested on: cotton aphid (Aphis gossypii [Glover])
- protocol details: Foliar leaf-dip test against cotton aphid on tomato plants
- Assay type: in vivo
- measurement parameters: cyano-pyrethroid 30.0 ppm alone (bifenthrin 0 ppm); technical; 72 h
reported property: % Mortality Cotton Aphid (%)

CC1(C)C(C=C(Cl)Cl)C1C(=O)OC(C#N)c1cccc(Oc2ccccc2)c1 (racemic) [alpha-cypermethrin] : 7
CC1(C)C(C=C(Cl)Cl)C1C(=O)OC(C#N)c1ccc(F)c(Oc2ccccc2)c1 (racemic) [cyfluthrin] : 6
CC1(C)[C@H](C(=O)O[C@H](C#N)c2cccc(Oc3ccccc3)c2)[C@@H]1/C=C(\Cl)C(F)(F)F (racemic) [lambda-cyhalothrin] : 11
CC(C)[C@H](C(=O)O[C@H](C#N)c1cccc(Oc2ccccc2)c1)c1ccc(Cl)cc1 [esfenvalerate] : 38
CC1(C)[C@H](C(=O)O[C@H](C#N)c2cccc(Oc3ccccc3)c2)[C@@H]1C=C(Br)Br [delta-methrin] : 7

###

- System: corn earworm (Helicoverpa zea [Boddie])
- protocol details: Cotton leaf-disc dip test against corn earworm
- Assay type: in vivo
- measurement parameters: cyano-pyrethroid 1.0 ppm alone (bifenthrin 0.0 ppm); technical; 96 h
reported property: % Mortality Corn Earworm (%)

CC(C)[C@H](C(=O)O[C@H](C#N)c1cccc(Oc2ccccc2)c1)c1ccc(Cl)cc1 [esfenvalerate] : 0
CC1(C)[C@H](C(=O)O[C@H](C#N)c2cccc(Oc3ccccc3)c2)[C@@H]1C=C(Br)Br : 50
CC1(C)[C@H](C(=O)O[C@H](C#N)c2cccc(Oc3ccccc3)c2)[C@@H]1/C=C(\Cl)C(F)(F)F (racemic) : 31
CC1(C)C(C=C(Cl)Cl)C1C(=O)OC(C#N)c1cccc(Oc2ccccc2)c1 (racemic) : 63
CC1(C)C(C=C(Cl)Cl)C1C(=O)OC(C#N)c1ccc(F)c(Oc2ccccc2)c1 (racemic) : 69

###

- System: Colorado potato beetle (Leptinotarsa decemlineata [Say])
- protocol details: Foliar leaf-dip test against adult Colorado potato beetle on tomato plants
- Type: in vivo
- measurement parameters: cyano-pyrethroid 0.3 ppm alone (bifenthrin 0 ppm); technical; 72 h
reported property: % Mortality Adult Colorado Potato Beetle (%)

CC1(C)[C@H](C(=O)O[C@H](C#N)c2cccc(Oc3ccccc3)c2)[C@@H]1C=C(Br)Br : 0
CC1(C)[C@H](C(=O)O[C@H](C#N)c2cccc(Oc3ccccc3)c2)[C@@H]1/C=C(\Cl)C(F)(F)F (racemic) : 30
CC(C)[C@H](C(=O)O[C@H](C#N)c1cccc(Oc2ccccc2)c1)c1ccc(Cl)cc1 [esfenvalerate] : 0
CC1(C)C(C=C(Cl)Cl)C1C(=O)OC(C#N)c1cccc(Oc2ccccc2)c1 (racemic) : 30
CC1(C)C(C=C(Cl)Cl)C1C(=O)OC(C#N)c1ccc(F)c(Oc2ccccc2)c1 (racemic) : 10

###

- System: Colorado potato beetle (Leptinotarsa decemlineata [Say])
- protocol details: Foliar leaf-dip test against adult Colorado potato beetle on tomato plants
- Type: in vivo
- measurement parameters: cyano-pyrethroid 3.0 ppm alone (bifenthrin 0 ppm); technical; 72 h
The entries below come with measured % Mortality Adult Colorado Potato Beetle values attached.
reported property: % Mortality Adult Colorado Potato Beetle (%)

CC1(C)[C@H](C(=O)O[C@H](C#N)c2cccc(Oc3ccccc3)c2)[C@@H]1C=C(Br)Br : 90
CC1(C)C(C=C(Cl)Cl)C1C(=O)OC(C#N)c1cccc(Oc2ccccc2)c1 (racemic) : 100
CC(C)[C@H](C(=O)O[C@H](C#N)c1cccc(Oc2ccccc2)c1)c1ccc(Cl)cc1 [esfenvalerate] : 5
CC1(C)C(C=C(Cl)Cl)C1C(=O)OC(C#N)c1ccc(F)c(Oc2ccccc2)c1 (racemic) : 80
CC1(C)[C@H](C(=O)O[C@H](C#N)c2cccc(Oc3ccccc3)c2)[C@@H]1/C=C(\Cl)C(F)(F)F (racemic) : 100

###

The entries below come with measured % Mortality Corn Earworm values attached.
- Test system: corn earworm (Helicoverpa zea [Boddie])
- protocol details: Cotton leaf-disc dip test against corn earworm
- Assay type: in vivo
- measurement parameters: cyano-pyrethroid 0.3 ppm alone (bifenthrin 0.0 ppm); technical; 96 h
reported property: % Mortality Corn Earworm (%)

CC1(C)[C@H](C(=O)O[C@H](C#N)c2cccc(Oc3ccccc3)c2)[C@@H]1/C=C(\Cl)C(F)(F)F (racemic) : 6
CC(C)[C@H](C(=O)O[C@H](C#N)c1cccc(Oc2ccccc2)c1)c1ccc(Cl)cc1 [esfenvalerate] : 0
CC1(C)C(C=C(Cl)Cl)C1C(=O)OC(C#N)c1cccc(Oc2ccccc2)c1 (racemic) : 6
CC1(C)C(C=C(Cl)Cl)C1C(=O)OC(C#N)c1ccc(F)c(Oc2ccccc2)c1 (racemic) : 13
CC1(C)[C@H](C(=O)O[C@H](C#N)c2cccc(Oc3ccccc3)c2)[C@@H]1C=C(Br)Br : 6
